Data origin: patent US11254652B2

assay: Solubility measurements by gravimetric method in solvents at 23° C. and 50° C.
Type: physicochemical
setupConditions: THF:water (8:2), 23 °C, organic solvent or mixture, thermodynamic from solid, THF:water (8:2), 23° C.; read-out: Solubility
quantityName: solubility at 2 days (mg/mL)
Kindly answer with a numeric value in mg/mL, unit omitted.

Consider the molecule O=C(c1ccc(NS(=O)(=O)c2cccc3cccnc23)cc1)N1CCN(CC2CC2)CC1 [Form A, hemisulfate sesquihydrate] and give its measured solubility at 2 days.
14

----------
assay: Solubility measurements by gravimetric method in solvents at 23° C. and 50° C.
Type: physicochemical
setupConditions: MeOAc:MeOH (1:1), 50 °C, organic solvent or mixture, thermodynamic from solid, non-crystalline freebase; MeOAc:MeOH (1:1), 50° C.; read-out: Solubility
quantityName: solubility at 2 days
Record the result as number plus unit.

Consider the compound O=C(c1ccc(NS(=O)(=O)c2cccc3cccnc23)cc1)N1CCN(CC2CC2)CC1 and give its measured solubility at 2 days.
34 mg/mL

----------
assay: Solubility measurements by gravimetric method in solvents at 23° C. and 50° C.
Format: physicochemical
setupConditions: IPA:DMSO:water (80:18:2), 50 °C, organic solvent or mixture, thermodynamic from solid, IPA:DMSO:water (80:18:2), 50° C.; read-out: Solubility
Procedure: Solubility measurements were done by gravimetric method in 20 different solvents at two temperatures (23° C. and 50° C.). About 20-30 mg of Form A, the synthesis of which is described below, was weighed and 0.75 mL solvent was added to form a slurry. […] From these three weights; vial, vial+liquid and vial+solid; the weight of dissolved solid and the solvent were calculated. Then using solvent density the solubility was calculated as mg solid/mL of solvent. […]
quantityName: solubility at 2 days (µg/mL)
Kindly answer with a numeric value in µg/mL, unit omitted.

Consider the compound O=C(c1ccc(NS(=O)(=O)c2cccc3cccnc23)cc1)N1CCN(CC2CC2)CC1 [Form A, hemisulfate sesquihydrate] and give its measured solubility at 2 days.
6000

----------
assay: Solubility measurements by gravimetric method in solvents at 23° C. and 50° C.
Assay type: physicochemical
setupConditions: MeOH, 50 °C, organic solvent or mixture, thermodynamic from solid, MeOH, 50° C., 2 days slurry; read-out: Solubility
quantityName: solubility at 2 days

Consider the molecule O=C(c1ccc(NS(=O)(=O)c2cccc3cccnc23)cc1)N1CCN(CC2CC2)CC1 [Form A, hemisulfate sesquihydrate] and give its measured solubility at 2 days.
> 765 mg/mL

----------
assay: Solubility in water and simulated fluids at 37° C. (slurry, HPLC; XRPD of residual solid)
Assay type: physicochemical
setupConditions: FaSSGF, 37 °C, fassgf or other biorelevant, thermodynamic from solid, slurry time 1 hr, values based on hemi-sulfate sesqui-hydrate salt
quantityName: solubility at 1 h (µg/mL)
Kindly answer with a numeric value in µg/mL, unit omitted.

Consider the compound O=C(c1ccc(NS(=O)(=O)c2cccc3cccnc23)cc1)N1CCN(CC2CC2)CC1 [Form A, hemisulfate sesquihydrate] and give its measured solubility at 1 h.
7070

----------
assay: Solubility measurements by gravimetric method in solvents at 23° C. and 50° C.
Type: physicochemical
setupConditions: acetone:water (8:2), 50 °C, organic solvent or mixture, thermodynamic from solid, acetone:water (8:2), 50° C.; read-out: Solubility
Description: Solubility measurements were done by gravimetric method in 20 different solvents at two temperatures (23° C. and 50° C.). About 20-30 mg of Form A, the synthesis of which is described below, was weighed and 0.75 mL solvent was added to form a slurry. […] From these three weights; vial, vial+liquid and vial+solid; the weight of dissolved solid and the solvent were calculated. Then using solvent density the solubility was calculated as mg solid/mL of solvent. […]
quantityName: solubility at 2 days (mg/mL)
Kindly answer with a numeric value in mg/mL, unit omitted.

Consider the compound O=C(c1ccc(NS(=O)(=O)c2cccc3cccnc23)cc1)N1CCN(CC2CC2)CC1 [Form A, hemisulfate sesquihydrate] and give its measured solubility at 2 days.
16

----------
assay: Solubility measurements by gravimetric method in solvents at 23° C. and 50° C.
Format: physicochemical
setupConditions: DCM, 23 °C, organic solvent or mixture, thermodynamic from solid, DCM, 23° C.; read-out: Solubility
quantityName: solubility at 2 days (µg/mL)
Kindly answer with a numeric value in µg/mL, unit omitted.

Consider the compound O=C(c1ccc(NS(=O)(=O)c2cccc3cccnc23)cc1)N1CCN(CC2CC2)CC1 [Form A, hemisulfate sesquihydrate] and give its measured solubility at 2 days.
2000

----------
assay: Solubility measurements by gravimetric method in solvents at 23° C. and 50° C.
Assay type: physicochemical
setupConditions: EtOH:MeOH (1:1), 23 °C, organic solvent or mixture, thermodynamic from solid, EtOH:MeOH (1:1), 23° C.; read-out: Solubility
quantityName: solubility at 2 days (µg/mL)
Kindly answer with a numeric value in µg/mL, unit omitted.

Consider the molecule O=C(c1ccc(NS(=O)(=O)c2cccc3cccnc23)cc1)N1CCN(CC2CC2)CC1 [Form A, hemisulfate sesquihydrate] and give its measured solubility at 2 days.
2000

----------
assay: Solubility measurements by gravimetric method in solvents at 23° C. and 50° C.
Assay type: physicochemical
setupConditions: MeOAc:MeOH (1:1) and 2.5 vol % water, 23 °C, organic solvent or mixture, thermodynamic from solid, MeOAc:MeOH (1:1) and 2.5 vol % water, 23° C.; read-out: Solubility
quantityName: solubility at 2 days (mg/mL)
Kindly answer with a numeric value in mg/mL, unit omitted.

Consider the compound O=C(c1ccc(NS(=O)(=O)c2cccc3cccnc23)cc1)N1CCN(CC2CC2)CC1 [Form A, hemisulfate sesquihydrate] and give its measured solubility at 2 days.
39

----------
assay: Solubility measurements by gravimetric method in solvents at 23° C. and 50° C.
Assay type: physicochemical
setupConditions: MeOAc:MeOH (1:1) and 2.5 vol % water, 23 °C, organic solvent or mixture, thermodynamic from solid, non-crystalline freebase; MeOAc:MeOH (1:1) and 2.5 vol % water, 23° C.; read-out: Solubility
quantityName: solubility at 2 days (mg/mL)
Kindly answer with a numeric value in mg/mL, unit omitted.

Consider the molecule O=C(c1ccc(NS(=O)(=O)c2cccc3cccnc23)cc1)N1CCN(CC2CC2)CC1 and give its measured solubility at 2 days.
15

----------
assay: Solubility in MeOH:Water by slow heating to dissolve at fixed solvent volume
Assay type: physicochemical
setupConditions: organic solvent or mixture, thermodynamic from solid; MeOH:Water (95:5), 6 vol, temperature when dissolution 60 ° C.
quantityName: Solubility
Record the result as number plus unit.

Consider the molecule O=C(c1ccc(NS(=O)(=O)c2cccc3cccnc23)cc1)N1CCN(CC2CC2)CC1 [Form A, hemisulfate sesquihydrate] and give its measured Solubility.
167 mg/mL

----------
assay: Solubility measurements by gravimetric method in solvents at 23° C. and 50° C.
Assay type: physicochemical
setupConditions: MeOH:water (1:1) system as printed, 2.5% water, organic solvent or mixture, thermodynamic from solid, MeOH:water (1:1) system as printed, 2.5% water; read-out: room temperature solubility
quantityName: solubility at 2 days (mg/mL)
Kindly answer with a numeric value in mg/mL, unit omitted.

Consider the compound O=C(c1ccc(NS(=O)(=O)c2cccc3cccnc23)cc1)N1CCN(CC2CC2)CC1 [Form A, hemisulfate sesquihydrate] and give its measured solubility at 2 days.
39

----------
assay: Solubility measurements by gravimetric method in solvents at 23° C. and 50° C.
Assay type: physicochemical
setupConditions: MeOAc:MeOH (1:1) and 1 vol % water, 23 °C, organic solvent or mixture, thermodynamic from solid, MeOAc:MeOH (1:1) and 1 vol % water, 23° C.; read-out: Solubility
quantityName: solubility at 2 days (mg/mL)
Kindly answer with a numeric value in mg/mL, unit omitted.

Consider the compound O=C(c1ccc(NS(=O)(=O)c2cccc3cccnc23)cc1)N1CCN(CC2CC2)CC1 [Form A, hemisulfate sesquihydrate] and give its measured solubility at 2 days.
118

----------
assay: Solubility measurements by gravimetric method in solvents at 23° C. and 50° C.
Assay type: physicochemical
setupConditions: EtOAc:MeOH (1:1), 50 °C, organic solvent or mixture, thermodynamic from solid, EtOAc:MeOH (1:1), 50° C.; read-out: Solubility
quantityName: solubility at 2 days (mg/mL)
Kindly answer with a numeric value in mg/mL, unit omitted.

Consider the molecule O=C(c1ccc(NS(=O)(=O)c2cccc3cccnc23)cc1)N1CCN(CC2CC2)CC1 [Form A, hemisulfate sesquihydrate] and give its measured solubility at 2 days.
240

----------
assay: Solubility measurements by gravimetric method in solvents at 23° C. and 50° C.
Format: physicochemical
setupConditions: MEK:water (20:1), 50 °C, organic solvent or mixture, thermodynamic from solid, MEK:water (20:1), 50° C.; read-out: Solubility
quantityName: solubility at 2 days (µg/mL)
Kindly answer with a numeric value in µg/mL, unit omitted.

Consider the compound O=C(c1ccc(NS(=O)(=O)c2cccc3cccnc23)cc1)N1CCN(CC2CC2)CC1 [Form A, hemisulfate sesquihydrate] and give its measured solubility at 2 days.
2000

----------
assay: Solubility measurements by gravimetric method in solvents at 23° C. and 50° C.
Format: physicochemical
setupConditions: EtOAc:MeOH (9:1), 50 °C, organic solvent or mixture, thermodynamic from solid, EtOAc:MeOH (9:1), 50° C.; read-out: Solubility
quantityName: solubility at 2 days (µg/mL)
Kindly answer with a numeric value in µg/mL, unit omitted.

Consider the compound O=C(c1ccc(NS(=O)(=O)c2cccc3cccnc23)cc1)N1CCN(CC2CC2)CC1 [Form A, hemisulfate sesquihydrate] and give its measured solubility at 2 days.
9000
